src = patent US12227495B2

The entries below come with measured percentage damage caused to the plant, SETFA values attached.
Test system: Setaria faberi (SETFA)
assay_details: Post-emergence herbicide test, glasshouse, percentage damage
Assay type: in vivo
test_conditions: 250 g/ha, evaluated after 13 days
endpoint_name: percentage damage caused to the plant, SETFA

>  <compound>
Fc1cc(Cl)cnc1Oc1cccc(Cl)c1-c1cc(C(F)F)no1 [Compound A42]

>  <reported_value>
5 (5=81-100%)

$$$$
>  <compound>
Cc1ccc(C#N)nc1Oc1cccc(F)c1-c1cc(C(F)F)no1 [Compound A76]

>  <reported_value>
1 (1=0-20%)

$$$$
>  <compound>
Fc1cnc(Oc2ccccc2-n2cc(C(F)(F)F)cn2)c(F)c1 [Compound A18]

>  <reported_value>
3 (3=41-60%)

$$$$
>  <compound>
Fc1cccc(Oc2ccc(C(F)F)cn2)c1-c1cc(C(F)F)no1 [Compound A77]

>  <reported_value>
5 (5=81-100%)

$$$$
>  <compound>
FC(F)c1cc(-c2c(Br)cccc2Oc2ccc(Cl)cn2)on1 [Compound A100]

>  <reported_value>
5 (5=81-100%)

$$$$

---

The entries below come with measured Pre-emergence Test SETFA percentage damage (five point scale) values attached.
Test system: Setaria faberi (SETFA)
assay_details: Pre-emergence herbicide test, glasshouse, percentage damage
Type: in vivo
test_conditions: rate 500 g/ha, evaluated after 13 days
endpoint_name: Pre-emergence Test SETFA percentage damage (five point scale)

>  <compound_structure>
Fc1cc(Cl)cnc1Oc1cccc(F)c1-c1ncc(C(F)(F)F)o1

>  <reported_value>
3 (3=41-60%)

$$$$
>  <compound_structure>
Fc1cccc(Oc2ccc(Cl)cn2)c1-c1cc(C(F)F)no1

>  <reported_value>
5 (5=81-100%)

$$$$
>  <compound_structure>
O=[N+]([O-])c1ccc(Oc2cccc(F)c2-c2cc(C(F)F)no2)nc1

>  <reported_value>
5 (5=81-100%)

$$$$
>  <compound_structure>
N#Cc1ccc(Oc2cccc(F)c2-c2cc(C(F)F)no2)nc1

>  <reported_value>
5 (5=81-100%)

$$$$
>  <compound_structure>
Fc1cc(Cl)cnc1Oc1cccc(F)c1-c1cc(C(F)F)no1

>  <reported_value>
5 (5=81-100%)

$$$$
>  <compound_structure>
Fc1cccc(Oc2ccc(C(F)(F)F)cn2)c1-c1cc(C(F)F)no1

>  <reported_value>
5 (5=81-100%)

$$$$
>  <compound_structure>
Fc1cccc(Oc2cccc(F)c2-c2cc(C(F)F)no2)n1

>  <reported_value>
4 (4=61-80%)

$$$$
>  <compound_structure>
Fc1cccc(Oc2cc(C(F)(F)F)ccn2)c1-c1cc(C(F)F)no1

>  <reported_value>
3 (3=41-60%)

$$$$
>  <compound_structure>
Fc1cccc(Oc2ncc(Cl)cc2Cl)c1-c1cc(C(F)F)no1

>  <reported_value>
2 (2=21-40%)

$$$$
>  <compound_structure>
Fc1cnc(Oc2cccc(F)c2-c2cc(C(F)F)no2)c(F)c1

>  <reported_value>
5 (5=81-100%)

$$$$

---

The entries below come with measured Pre-emergence Test ECHCG percentage damage (five point scale) values attached.
System: Echinochloa crus-galli (ECHCG)
assay_details: Pre-emergence herbicide test, glasshouse, percentage damage
Format: in vivo
test_conditions: rate 1000 g/ha, evaluated after 13 days
endpoint_name: Pre-emergence Test ECHCG percentage damage (five point scale)

>  <compound_structure>
O=[N+]([O-])c1cnc(Oc2cccc(F)c2-c2cc(C(F)F)no2)c(F)c1

>  <reported_value>
3 (3=41-60%)

$$$$
>  <compound_structure>
Fc1cc(Cl)cnc1Oc1ccccc1-n1cc(Cl)cn1

>  <reported_value>
5 (5=81-100%)

$$$$
>  <compound_structure>
COc1csc(-c2ccccc2Oc2ncc(Cl)cc2F)c1

>  <reported_value>
1 (1=0-20%)

$$$$
>  <compound_structure>
CS(=O)(=O)c1cnc(Oc2cccc(F)c2-c2cc(C(F)F)no2)c(F)c1

>  <reported_value>
1 (1=0-20%)

$$$$
>  <compound_structure>
FC(F)(F)c1cnn(-c2ccccc2Oc2ccc(Cl)cn2)c1

>  <reported_value>
5 (5=81-100%)

$$$$
>  <compound_structure>
N#Cc1cc(Cl)cnc1Oc1cccc(Br)c1-c1cc(C(F)F)no1

>  <reported_value>
5 (5=81-100%)

$$$$
>  <compound_structure>
FC(F)c1cc(-c2c(Br)cccc2Oc2cc(Cl)ccn2)on1

>  <reported_value>
5 (5=81-100%)

$$$$
>  <compound_structure>
Fc1cc(Cl)cnc1Oc1ccccc1-n1ccc(C(F)(F)F)n1

>  <reported_value>
4 (4=61-80%)

$$$$
>  <compound_structure>
N#Cc1cccnc1Oc1cccc(F)c1-c1cc(C(F)F)no1

>  <reported_value>
3 (3=41-60%)

$$$$

---

The entries below come with measured percentage damage caused to the plant, LOLPE values attached.
Test system: Lolium perenne (LOLPE)
assay_details: Post-emergence herbicide test, glasshouse, percentage damage
Format: in vivo
test_conditions: 500 g/ha, evaluated after 13 days
endpoint_name: percentage damage caused to the plant, LOLPE

>  <compound_structure>
Fc1cccc(Oc2cccc(F)c2-c2cc(C(F)F)no2)n1

>  <target_desc>
Lolium perenne (LOLPE)

>  <reported_value>
2 (2=21-40%)

$$$$
>  <compound_structure>
N#Cc1ccc(Oc2cccc(F)c2-c2cc(C(F)F)no2)nc1

>  <target_desc>
Lolium perenne (LOLPE)

>  <reported_value>
5 (5=81-100%)

$$$$
>  <compound_structure>
O=[N+]([O-])c1ccc(Oc2cccc(F)c2-c2cc(C(F)F)no2)nc1

>  <target_desc>
Lolium perenne (LOLPE)

>  <reported_value>
5 (5=81-100%)

$$$$
>  <compound_structure>
Fc1cc(Cl)cnc1Oc1cccc(F)c1-c1ncc(C(F)(F)F)o1

>  <target_desc>
Lolium perenne (LOLPE)

>  <reported_value>
1 (1=0-20%)

$$$$
>  <compound_structure>
Fc1cnc(Oc2cccc(F)c2-c2cc(C(F)F)no2)c(F)c1

>  <target_desc>
Lolium perenne (LOLPE)

>  <reported_value>
5 (5=81-100%)

$$$$
>  <compound_structure>
Fc1cc(Cl)cnc1Oc1cccc(F)c1-c1cc(C(F)F)no1

>  <target_desc>
Lolium perenne (LOLPE)

>  <reported_value>
5 (5=81-100%)

$$$$
>  <compound_structure>
Fc1cccc(Oc2ncc(Cl)cc2Cl)c1-c1cc(C(F)F)no1

>  <target_desc>
Lolium perenne (LOLPE)

>  <reported_value>
1 (1=0-20%)

$$$$
>  <compound_structure>
Fc1cccc(Oc2ccc(C(F)(F)F)cn2)c1-c1cc(C(F)F)no1

>  <target_desc>
Lolium perenne (LOLPE)

>  <reported_value>
4 (4=61-80%)

$$$$
>  <compound_structure>
Fc1cccc(Oc2ccc(Cl)cn2)c1-c1cc(C(F)F)no1

>  <target_desc>
Lolium perenne (LOLPE)

>  <reported_value>
5 (5=81-100%)

$$$$
>  <compound_structure>
Fc1cccc(Oc2cc(C(F)(F)F)ccn2)c1-c1cc(C(F)F)no1

>  <target_desc>
Lolium perenne (LOLPE)

>  <reported_value>
1 (1=0-20%)

$$$$

---

System: Solanum nigrum (SOLNI)
assay_details: Pre-emergence herbicide test, glasshouse, percentage damage
Type: in vivo
test_conditions: rate 500 g/ha, evaluated after 13 days
endpoint_name: Pre-emergence Test SOLNI percentage damage (five point scale)

>  <compound_structure>
Fc1cccc(Oc2cccc(F)c2-c2cc(C(F)F)no2)n1

>  <reported_value>
5 (5=81-100%)

$$$$
>  <compound_structure>
Fc1cc(Cl)cnc1Oc1cccc(F)c1-c1cc(C(F)F)no1

>  <reported_value>
5 (5=81-100%)

$$$$
>  <compound_structure>
N#Cc1ccc(Oc2cccc(F)c2-c2cc(C(F)F)no2)nc1

>  <reported_value>
5 (5=81-100%)

$$$$
>  <compound_structure>
O=[N+]([O-])c1ccc(Oc2cccc(F)c2-c2cc(C(F)F)no2)nc1

>  <reported_value>
4 (4=61-80%)

$$$$
>  <compound_structure>
Fc1cnc(Oc2cccc(F)c2-c2cc(C(F)F)no2)c(F)c1

>  <reported_value>
5 (5=81-100%)

$$$$
>  <compound_structure>
Fc1cc(Cl)cnc1Oc1cccc(F)c1-c1ncc(C(F)(F)F)o1

>  <reported_value>
3 (3=41-60%)

$$$$
>  <compound_structure>
Fc1cccc(Oc2ccc(C(F)(F)F)cn2)c1-c1cc(C(F)F)no1

>  <reported_value>
5 (5=81-100%)

$$$$
>  <compound_structure>
Fc1cccc(Oc2cc(C(F)(F)F)ccn2)c1-c1cc(C(F)F)no1

>  <reported_value>
4 (4=61-80%)

$$$$
>  <compound_structure>
Fc1cccc(Oc2ccc(Cl)cn2)c1-c1cc(C(F)F)no1

>  <reported_value>
5 (5=81-100%)

$$$$
>  <compound_structure>
Fc1cccc(Oc2ncc(Cl)cc2Cl)c1-c1cc(C(F)F)no1

>  <reported_value>
3 (3=41-60%)

$$$$
